Biological target: 5-hydroxytryptamine receptor 2A (Homo sapiens) (UniProt P28223)
Sequence (P28223 whole entry, looked up): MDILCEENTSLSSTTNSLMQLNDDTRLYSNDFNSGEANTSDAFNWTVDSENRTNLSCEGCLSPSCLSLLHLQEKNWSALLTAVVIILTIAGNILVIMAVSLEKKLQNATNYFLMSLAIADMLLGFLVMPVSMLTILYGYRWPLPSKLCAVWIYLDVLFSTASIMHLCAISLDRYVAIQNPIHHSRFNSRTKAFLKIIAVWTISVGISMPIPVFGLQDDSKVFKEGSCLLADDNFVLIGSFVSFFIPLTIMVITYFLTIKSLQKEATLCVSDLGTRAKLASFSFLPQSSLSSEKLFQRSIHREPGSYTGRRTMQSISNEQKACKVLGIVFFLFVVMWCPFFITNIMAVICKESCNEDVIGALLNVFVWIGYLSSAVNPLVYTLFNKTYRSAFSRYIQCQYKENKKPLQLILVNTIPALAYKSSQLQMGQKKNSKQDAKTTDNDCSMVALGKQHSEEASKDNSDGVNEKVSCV
Test: 5-hydroxytryptamine receptor 2A (HTR2A) small molecule antagonists, cell-based qHTS assay (AID 1963586); further: nearly all actives have a fitted effect of over 45% in size
Conditions: HTR2A-CHO cells, DOI-induced calcium flux, fluorescence; series mostly up to 61.5 µM
Experimental: National Center for Advancing Translational Sciences [NCATS] Division of Preclinical Innovation [DPI] U.S. Environmental Protection Agency [EPA] National Institutes of Environmental Health Sciences [NIEHS] National Toxicology Program [NTP] […] HTR2A-CHO cells were dispensed at 2000 cells/3uL/well in 1536-well black-clear bottom plates using a Multidrop Dispenser. […] The fluorescence intensity in the plates was measured using FDSS 7000EX kinetic plate reader for 3 min at 1 sec intervals.
Results filed as inconclusive are left out. Active and inactive are the calls of the source. The call rests on the fitted dose curve.
Possible outcomes: true = active, false = inactive

- COMPOUND: "CCCCC(CC)COC(=O)COc1cc(Cl)c(Cl)cc1Cl (stereo unspecified)"
  CATEGORY: "false"
- COMPOUND: "CC(=O)OCC(C)OC(C)=O (stereo unspecified)"
  CATEGORY: "false"
- COMPOUND: "C=Cc1ccc(S(=O)(=O)O)cc1"
  CATEGORY: "false"
- COMPOUND: "O=C1CCCCCO1"
  CATEGORY: "false"
- COMPOUND: "COc1cc(NS(=O)(=O)c2ccc(N)cc2)nc(C)n1"
  CATEGORY: "false"
- COMPOUND: "OCCN1CCN(CCO)CC1"
  CATEGORY: "false"
- COMPOUND: "c1ccc(-c2ccccn2)nc1"
  CATEGORY: "false"
- COMPOUND: "CCC(C)(C)C1CCC(O)CC1 (stereo unspecified)"
  CATEGORY: "false"
- COMPOUND: "OCc1c[nH]c2ccccc12"
  CATEGORY: "false"
- COMPOUND: "CCCc1ncc(C[n+]2ccccc2C)c(N)n1"
  CATEGORY: "false"
- COMPOUND: "Nc1ccc(F)cc1F"
  CATEGORY: "false"
- COMPOUND: "CC(=O)Nc1ccc(/C=N/NC(N)=S)cc1"
  CATEGORY: "false"
- COMPOUND: "CC1=NN(c2ccc(S(=O)(=O)O)cc2)C(=O)C1N=Nc1ccccc1 (stereo unspecified)"
  CATEGORY: "false"
- COMPOUND: "COC(C)(C)CC(C)=O"
  CATEGORY: "false"
- COMPOUND: "CC(CC=O)CCCC(C)(C)O (stereo unspecified)"
  CATEGORY: "false"
- COMPOUND: "CCNCCO"
  CATEGORY: "false"
- COMPOUND: "CCCCCOC(=O)Nc1nc(=O)n([C@@H]2O[C@H](C)[C@@H](O)[C@H]2O)cc1F"
  CATEGORY: "false"
- COMPOUND: "CC(C)NC(=O)c1ccc(C=O)cc1"
  CATEGORY: "false"
- COMPOUND: "CN(C)CCCCCCN(C)C"
  CATEGORY: "false"
- COMPOUND: "CCCN(CCc1cccs1)[C@H]1CCc2c(O)cccc2C1"
  CATEGORY: "true"
- COMPOUND: "O=Cc1cc(O)ccc1Br"
  CATEGORY: "false"
- COMPOUND: "Cc1nc([N+](=O)[O-])cn1-c1ccc([N+](=O)[O-])cc1"
  CATEGORY: "false"
- COMPOUND: "c1ccc(-c2nc3ccccc3[nH]2)cc1"
  CATEGORY: "false"
- COMPOUND: "S=C([S-])NCCNC(=S)[S-].S=C([S-])NCCNC(=S)[S-].[Mn+2].[Zn+2]"
  CATEGORY: "false"
- COMPOUND: "CCC(Cl)CCC(Cl)C(Cl)CC(Cl)C(Cl)C(Cl)CCl (stereo unspecified)"
  CATEGORY: "false"
- COMPOUND: "C=COCCOCCOC=C"
  CATEGORY: "false"
- COMPOUND: "CCOB(OCC)OCC"
  CATEGORY: "false"
- COMPOUND: "CC(C)(CO)[N+](=O)[O-]"
  CATEGORY: "false"
- COMPOUND: "Cc1ccccc1N=C(N)Nc1ccccc1C"
  CATEGORY: "false"
- COMPOUND: "CCOc1ccc(OCC)c(Cl)c1"
  CATEGORY: "false"
- COMPOUND: "CC(C)c1cccc(C(C)C)c1N1C(=O)c2ccc(O)cc2C1=O"
  CATEGORY: "false"
